All values here come from patent US8846951B2.

Known pEC50 of a selection of molecules
target: 5HT2C receptors (Homo sapiens); test: Human 5-HT2C functional high throughput screening assay in CHO-K1 cells (calcium flux); format: cell-based; design: expressed in transfected cells; host or cells: CHO-K1 cells; settings: 5-HT2C agonist activity; CHO-K1 cells; calcium flux; read-out: EC50
Reminder that pEC50 means the negative base-10 logarithm of the concentration expressed in mol/L.

So what's the measured pEC50 for this one? COc1ccc(-c2ccc3c(c2)C(=O)NC[C@@H]2CN(C)C[C@@H]32)cc1F (relative stereo) [Example 316]
8.15

* * *

Target: UniProt:P28335
Sequence (P28335 33-458): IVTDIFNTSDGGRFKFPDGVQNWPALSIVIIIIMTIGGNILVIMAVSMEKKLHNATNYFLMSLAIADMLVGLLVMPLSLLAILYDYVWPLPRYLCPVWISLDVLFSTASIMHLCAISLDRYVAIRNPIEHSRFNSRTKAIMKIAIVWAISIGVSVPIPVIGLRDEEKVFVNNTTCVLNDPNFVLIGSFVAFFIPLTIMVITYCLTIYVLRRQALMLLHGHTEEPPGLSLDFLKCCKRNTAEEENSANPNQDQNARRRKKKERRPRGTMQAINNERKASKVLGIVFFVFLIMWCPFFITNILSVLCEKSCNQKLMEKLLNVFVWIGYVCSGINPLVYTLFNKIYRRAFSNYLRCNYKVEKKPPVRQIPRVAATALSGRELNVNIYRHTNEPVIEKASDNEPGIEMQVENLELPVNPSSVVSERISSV
Assay: Human 5-HT2C functional high throughput screening assay in CHO-K1 cells (calcium flux)
Assay type: cell-based
Design: expressed in transfected cells; host or cells: CHO-K1 cells
Settings: CHO-K1; 5-HT2C; maximum functional response as percentage relative to the effect of serotonin
Attribute: Emax
Report the figure in % without appending any unit label.

Recorded Emax, per entry:
>  <molecule>
Brc1cccc2c1[C@H]1CNC[C@@H]1CCO2 (relative stereo) [Example 377]

>  <value kind>
Emax

>  <value units>
%

>  <measured>
100

$$$$
>  <molecule>
Nc1ccc2c(c1)C(=O)NC[C@@H]1CNC[C@H]21 (relative stereo) [Example 145]

>  <value kind>
Emax

>  <value units>
%

>  <measured>
15

$$$$
>  <molecule>
CN1C[C@H]2CNC(=O)c3cc(C4=CCCC4)ccc3[C@@H]2C1 (relative stereo) [Example 201]

>  <value kind>
Emax

>  <value units>
%

>  <measured>
120

$$$$
>  <molecule>
C=C(c1ccc2c(c1)C(=O)NC[C@@H]1CN(C)C[C@@H]21)C(F)(F)F (relative stereo) [Example 202]

>  <value kind>
Emax

>  <value units>
%

>  <measured>
80

$$$$
>  <molecule>
O=S(=O)(c1cccc(F)c1)N1Cc2cccnc2[C@@H]2CNC[C@H]2C1 (relative stereo) [Example 337]

>  <value kind>
Emax

>  <value units>
%

>  <measured>
90

$$$$

Please look up its Emax: CC(C)COc1ccc2c(c1)C(=O)NC[C@H]1CNC[C@H]21 [Example 308]
95

# lookup: Emax of CN1C[C@@H]2CNC(=O)c3cc(OCC4CC4)ccc3[C@H]2C1 [Example 277]
100

* * *

Collected pEC50 values appear next to each entry.
Biological target: 5HT2C receptors (Homo sapiens)
Sequence (P28335 33-458): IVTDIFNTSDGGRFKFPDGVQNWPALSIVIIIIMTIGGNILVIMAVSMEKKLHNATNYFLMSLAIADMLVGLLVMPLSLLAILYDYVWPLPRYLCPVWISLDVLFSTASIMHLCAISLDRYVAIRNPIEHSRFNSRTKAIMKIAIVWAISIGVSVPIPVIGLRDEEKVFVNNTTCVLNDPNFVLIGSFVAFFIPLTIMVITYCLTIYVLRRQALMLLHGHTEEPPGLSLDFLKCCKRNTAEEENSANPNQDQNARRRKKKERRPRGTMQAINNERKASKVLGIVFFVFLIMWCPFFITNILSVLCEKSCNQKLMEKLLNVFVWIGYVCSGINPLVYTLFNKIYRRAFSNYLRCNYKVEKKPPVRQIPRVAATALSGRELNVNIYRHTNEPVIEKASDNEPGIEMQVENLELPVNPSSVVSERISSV
Test: Human 5-HT2C functional high throughput screening assay in CHO-K1 cells (calcium flux)
Type: cell-based
Set-up: expressed in transfected cells; host or cells: CHO-K1 cells
Settings: EC50, 5-HT2C agonist activity; CHO-K1 cells; calcium flux
Experimental: (iii) Human 5-HT2C and 5-HT2B Functional High Throughput Screening Assays in CHO-K1 Cells […] After incubation, the cell plates were transferred to FLIPR™ (MDS) and their fluorescence measurements were read at an excitation wavelength of 480 nm and an emission wavelength of 530 nm at 25° C. The baseline fluorescence was measured for the first 10 seconds and then 15 μL of 4× concentration of serotonin/test compound was added to the cells. […]
pEC50 is a log-scale quantity: -log10 of the concentration expressed in molar.

# count of solved cases: 8
>  <compound>
CN1C[C@H]2CNC[C@@H]2c2ccc(F)cc2C1=O [Example 225]

>  <pEC50>
7.70

$$$$
>  <compound>
Cc1noc(C)c1-c1ccc2c(c1)C(=O)NC[C@@H]1CNC[C@@H]21 (single isomer, unassigned) [Example 245]

>  <pEC50>
7.30

$$$$
>  <compound>
Brc1cccc2c1[C@H]1CNC[C@@H]1CCO2 (relative stereo) [Example 377]

>  <pEC50>
6.70

$$$$
>  <compound>
CN1CC[C@@H]2CNC[C@H]2c2ccccc21 (relative stereo) [Example 327]

>  <pEC50>
8.00

$$$$
>  <compound>
Fc1ccc(F)c2c1OCC[C@H]1CNC[C@H]21 (relative stereo) [Example 289]

>  <pEC50>
8.15

$$$$
>  <compound>
O=S(=O)(c1ccccc1)N1Cc2cccnc2[C@@H]2CNC[C@H]2C1 (relative stereo) [Example 338]

>  <pEC50>
7.00

$$$$
>  <compound>
CN1C[C@H]2CNC(=O)c3cc(Cl)ccc3[C@@H]2C1 (relative stereo) [Example 53]

>  <pEC50>
7.70

$$$$
>  <compound>
CC(C)COc1ccc2c(c1)C(=O)NC[C@@H]1CN(C)C[C@@H]21 (relative stereo) [Example 172]

>  <pEC50>
7.22

$$$$

Bench note: what pEC50 did CC(C)CCOc1ccc2c(c1)C(=O)NC[C@@H]1CNC[C@@H]21 (relative stereo) [Example 169] show?
9.00

GET /values?readout=pEC50&item= CC(C)Cc1ccc2c(c1)C(=O)NC[C@@H]1CN(C)C[C@@H]21 (relative stereo) [Example 244]
7.00

Returns the measured pEC50 for the input compound. Input: O=C1NC[C@@H]2CNC[C@H]2c2cccc(F)c21 (single isomer, unassigned) [Example 60]
8.15

Consider the compound shown here: O=C1NC[C@@H]2CN(Cc3ccccc3)C[C@H]2c2ccc(F)cc21 (relative stereo) [Example 55] What is its recorded pEC50?
7.40

// lookup pEC50 for c1ccc2c(c1)OCC[C@H]1CNC[C@H]21 (relative stereo) [Example 94]
7.52

Query (compound): Brc1cccc2c1OCC[C@H]1CNC[C@@H]21 (relative stereo) [Example 332] ; field requested: pEC50
9.05

Tell me the measured pEC50 of Nc1ccc2c(c1)C(=O)NC[C@@H]1CNC[C@H]21 (relative stereo) [Example 145] , please.
5.52

Quick one: pEC50 for CN1C[C@H]2CNC(=O)c3cc(/C=C/C4CC4)ccc3[C@@H]2C1 (relative stereo) [Example 305] ?
8.22

* * *

Listed here: items and their measured Emax.
Biological target: 5HT2C receptors (Homo sapiens)
Sequence (P28335 33-458): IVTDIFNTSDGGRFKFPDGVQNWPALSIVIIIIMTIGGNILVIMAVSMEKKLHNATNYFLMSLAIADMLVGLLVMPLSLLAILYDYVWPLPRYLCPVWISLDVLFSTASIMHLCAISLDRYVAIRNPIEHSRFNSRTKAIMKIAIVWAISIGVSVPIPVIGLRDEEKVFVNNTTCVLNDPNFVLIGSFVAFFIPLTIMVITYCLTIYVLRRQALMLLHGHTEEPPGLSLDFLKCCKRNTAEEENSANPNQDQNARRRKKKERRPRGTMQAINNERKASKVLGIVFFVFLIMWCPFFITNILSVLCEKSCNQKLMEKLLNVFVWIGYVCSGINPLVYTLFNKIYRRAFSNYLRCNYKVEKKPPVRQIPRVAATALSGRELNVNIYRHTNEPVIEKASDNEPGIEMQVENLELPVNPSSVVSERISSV
Test: Human 5-HT2C functional high throughput screening assay in CHO-K1 cells (calcium flux)
Type: cell-based
Design: expressed in transfected cells; host or cells: CHO-K1 cells
Details: CHO-K1; 5-HT2C; maximum functional response as percentage relative to the effect of serotonin; read-out: Emax
Description: (iii) Human 5-HT2C and 5-HT2B Functional High Throughput Screening Assays in CHO-K1 Cells […] After incubation, the cell plates were transferred to FLIPR™ (MDS) and their fluorescence measurements were read at an excitation wavelength of 480 nm and an emission wavelength of 530 nm at 25° C. The baseline fluorescence was measured for the first 10 seconds and then 15 μL of 4× concentration of serotonin/test compound was added to the cells. […]

>  <compound>
c1ccc(-c2ccc3c(c2)[C@H]2CNC[C@@H]2CCO3)cc1 (relative stereo)

>  <target desc>
5HT2C receptors (Homo sapiens)

>  <Emax>
> 120%

$$$$
>  <compound>
COc1ccc(-c2ccc3c(c2)C(=O)NC[C@H]2CN(C)C[C@H]32)cc1

>  <target desc>
5HT2C receptors (Homo sapiens)

>  <Emax>
> 120%

$$$$
>  <compound>
CN1C[C@H]2CNC(=O)c3cc(C4=CCOCC4)ccc3[C@@H]2C1 (relative stereo)

>  <target desc>
5HT2C receptors (Homo sapiens)

>  <Emax>
> 120%

$$$$
>  <compound>
COc1ccc(C(C)C)cc1-c1ccc2c(c1)C(=O)NC[C@@H]1CN(C)C[C@@H]21 (relative stereo)

>  <target desc>
5HT2C receptors (Homo sapiens)

>  <Emax>
105%

$$$$
>  <compound>
CN1C[C@@H]2CNC(=O)c3cc(OCc4c(F)ccc(F)c4F)ccc3[C@H]2C1

>  <target desc>
5HT2C receptors (Homo sapiens)

>  <Emax>
> 120%

$$$$

Which value of Emax has been reported for COc1cccc(-c2ccc3c(c2)C(=O)NC[C@@H]2CN(C)C[C@@H]32)c1 [Example 161] in the records?
110%

What does the data say about its Emax? Entry: CN1C[C@H]2CNC(=O)c3cc(-c4ccccc4)ccc3[C@@H]2C1 (relative stereo)
110%

Requested field: Emax. Item: COc1cccc(CN2C[C@H]3CNC(=O)c4ccccc4[C@@H]3C2)c1 (relative stereo)
> 120%
